- TEST SUMMARY: protein stability index of a GFP-peptide fusion (yeast GPS) (PSI 1-4); higher = more stable; sorted into four equal gates, so the index is relative within each strain
- CONDITION PARAMETERS: doa10∆
The entries below are paired with their reported protein stability index.

[
  {
    "ORDERED RESIDUES": "YTRYLDRIYMLFHFEED [PRP8]",
    "protein stability index": 1.68
  },
  {
    "ORDERED RESIDUES": "KTSKDIAVLRSKEWFQL [FAS1]",
    "protein stability index": 2.01
  },
  {
    "ORDERED RESIDUES": "DDSDNVMSSDDENAPVA [PRE10]",
    "protein stability index": 3.12
  },
  {
    "ORDERED RESIDUES": "RRVNQAIALLTIGAREA [RPS5]",
    "protein stability index": 3.21
  },
  {
    "ORDERED RESIDUES": "REDEFGSIPSLTTQFVT [YDL088C/ASM4]",
    "protein stability index": 3
  },
  {
    "ORDERED RESIDUES": "LNATKISPSAPSKDSFT [YAR002W/NUP60]",
    "protein stability index": 2.8
  },
  {
    "ORDERED RESIDUES": "LSEFGIKKMLHLVWMKG [YCS4]",
    "protein stability index": 3.17
  },
  {
    "ORDERED RESIDUES": "FTCSCNSLTVDGNNANY [RPN14]",
    "protein stability index": 2.8
  },
  {
    "ORDERED RESIDUES": "THQSPPPPPQQSQPIAN [SNF5]",
    "protein stability index": 3.01
  },
  {
    "ORDERED RESIDUES": "DKYKLYPVRIPRLDTSK [YJR042W/NUP85]",
    "protein stability index": 3.01
  },
  {
    "ORDERED RESIDUES": "GSVSEETELFEPGVLNT [ECM29]",
    "protein stability index": 3.28
  },
  {
    "ORDERED RESIDUES": "FLYEILSSLKSFAIYSS [SRB8]",
    "protein stability index": 1.24
  },
  {
    "ORDERED RESIDUES": "YAKDILQKEFLPHITQL [RPB2]",
    "protein stability index": 1.76
  },
  {
    "ORDERED RESIDUES": "KKHKQKKVLEIDFFKTD [BRN1]",
    "protein stability index": 2.54
  }
]

====

The entries below are paired with their reported protein stability index.
- TEST SUMMARY: protein stability index of a GFP-peptide fusion (yeast GPS) (PSI 1-4); higher = more stable; sorted into four equal gates, so the index is relative within each strain
- CONDITION PARAMETERS: ubr1∆

[
  {
    "ORDERED RESIDUES": "QLHFSLLDEEAEQSFDQ [RPO21]",
    "protein stability index": 2.64
  },
  {
    "ORDERED RESIDUES": "RELLVEGYGLRDVMCTD [RPO31]",
    "protein stability index": 2.95
  },
  {
    "ORDERED RESIDUES": "LDKLNCAINSKSRGSDL [RRP6]",
    "protein stability index": 2.94
  },
  {
    "ORDERED RESIDUES": "VEGISEVQARKSKSVSF [RPT5]",
    "protein stability index": 3.3
  },
  {
    "ORDERED RESIDUES": "KHDSLRYRLLSDVSDFE [RPN1]",
    "protein stability index": 2.66
  },
  {
    "ORDERED RESIDUES": "IISRLNADFQKPWFATV [FAS1]",
    "protein stability index": 2.96
  },
  {
    "ORDERED RESIDUES": "QISLNRLIDSMKQYSYL [RRI1]",
    "protein stability index": 3.11
  },
  {
    "ORDERED RESIDUES": "LLMRLEGNYRNLNNLKQ [RPB8]",
    "protein stability index": 3.37
  }
]
